Molecular target: T1, soluble FGFR3c receptor protein (human, UniProt P22607 141-372)
T1 sequence: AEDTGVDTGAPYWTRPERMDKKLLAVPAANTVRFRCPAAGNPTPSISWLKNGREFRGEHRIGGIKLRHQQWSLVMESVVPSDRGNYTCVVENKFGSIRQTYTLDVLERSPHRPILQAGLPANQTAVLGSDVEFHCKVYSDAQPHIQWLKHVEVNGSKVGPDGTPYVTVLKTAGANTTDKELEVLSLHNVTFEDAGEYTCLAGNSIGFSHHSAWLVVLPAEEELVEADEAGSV
Assay: BLI Octet RED96, antibody on anti-hIgG Fc tip

{"columns": ["Binder", "koff / s⁻¹"],
 "data": [
  ["Vk6 combined with the VH of Ab15 (antibody, V domains shown, captured on anti-human IgG Fc tips) VH: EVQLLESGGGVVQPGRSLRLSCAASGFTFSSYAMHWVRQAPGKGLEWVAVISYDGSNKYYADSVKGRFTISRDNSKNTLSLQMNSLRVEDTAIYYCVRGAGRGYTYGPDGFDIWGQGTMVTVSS VL: DIVMTQTPLSLSVTPGQPASISCKSSQSLLHSDGKTYLYWYLQKPGQPPQLLIYELSNRFSGVPDRFSGSGSGTDFTLKISRVEAEDVGVYYCMQYIEAPLTFGGGTKVEIK", 0.00157],
  ["Ab90 (antibody, human IgG2, kappa, V domains shown, format in the assays not spelled out) VH: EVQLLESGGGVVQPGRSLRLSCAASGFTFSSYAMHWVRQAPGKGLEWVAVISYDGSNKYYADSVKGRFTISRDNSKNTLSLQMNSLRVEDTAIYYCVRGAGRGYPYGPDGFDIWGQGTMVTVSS VL: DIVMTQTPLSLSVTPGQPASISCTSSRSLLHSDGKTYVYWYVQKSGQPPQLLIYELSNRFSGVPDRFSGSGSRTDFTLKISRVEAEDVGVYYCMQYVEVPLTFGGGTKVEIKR", 0.0015],
  ["Vk9 combined with the VH of Ab15 (antibody, V domains shown, captured on anti-human IgG Fc tips) VH: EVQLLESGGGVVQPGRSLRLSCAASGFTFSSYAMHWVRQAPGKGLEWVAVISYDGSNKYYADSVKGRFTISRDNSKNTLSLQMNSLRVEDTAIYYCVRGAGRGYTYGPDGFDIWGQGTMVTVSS VL: DIVMTQSPDSLAVSLGERATINCKSSQSLLHSDGKTYVYWYQQKPGQPPKLLIYELSNRFSGVPDRFSGSGSGTDFTLTISSLQAEDVAVYYCMQYIEAPLTFGGGTKVEIK", 0.000749]
]}
